Reference source for all entries: paper PMC10397247

Biological target: T1, 4H953-bN
T1 chain: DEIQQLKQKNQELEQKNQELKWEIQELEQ
Assay: two-hybrid library CCNG1;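 further: natural log of median RNA to DNA barcode read ratio; higher means stronger binding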
assay.readout: interaction score
Lab note: record just the number, no unit beside it.

What the record says about DKNQQLEQKIQELEQENQELKWEIQELKQ [4H3354-bN] : interaction score is -0.946

Briefly, interaction score measured for DEIQQLKQKNQELEQEIQELKWENQELKQ [4H908-bN] : -0.77

Quick note, interaction score for DKNQQLKQKIQELEQEIQELKWKNQELEQ [4H3855-bN] landed at -0.653

What the record says about DKIQQLKQENQELEQEIQELKWEIQELEQ [4H2697-bN] : interaction score is -0.808
